Measured Kd, listed per entry.
# SYSTEM: T1, human Mdm2 (1–125) (human)
# T1 construct: Mdm2, human, residues 1-125; the stretch after the TEV site ENLYFQG of the fusion protein; No cleavage of the tags is described, so it is open whether the fusion or cleaved Mdm2 stood in the FP and ITC assays; also called purified recombinant human Mdm2 protein (amino acids 1–125); source: E. coli BL21 (DE3) Rosetta T1R, purified (Ni-NTA, gel filtration)
# T1 sequence (chain, as listed by the source): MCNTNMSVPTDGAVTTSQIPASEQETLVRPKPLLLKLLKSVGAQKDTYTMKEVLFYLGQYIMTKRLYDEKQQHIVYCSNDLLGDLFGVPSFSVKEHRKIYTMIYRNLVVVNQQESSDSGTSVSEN
# ASSAY INFO: fluorescence polarisation; competition: unlabeled peptide titrated against the complex of 250 nM Mdm2 (1–125) and 50 nM FAM-labeled 12/1 peptide; apparent Kd from the tracer's Kd of […] nM; PBS pH 7.4, 0.1% Tween 20; triplicate
# EXPERIMENTAL PARAMETERS: both partners purified
Bridge positions count the residues as written; N and C are the ends. Square brackets hold non-standard residues; d marks the D form. Primed or numbered codes have the meaning given here. Lys(N3) = [N-]=[N+]=NCCCC[C@H](N)C(=O)O; R8 = C=CCCCCCC[C@@](C)(N)C(=O)O; S5 = C=CCCC[C@](C)(N)C(=O)O; NMeA = CN[C@@H](C)C(=O)O; Cba′ = not defined here; βAla = NCCC(=O)O
READOUT: Kd (nM)

BINDER: Ac-[Lys(N3)][βAla]LTF[R8]EYWAQ[Cba′][S5]S[NMeA]A-NH2 (staple 6-13; reading uncertain) [MP-081 A13(N-methyl L-Ala)]
UNIT ABBREVIATION: nM
READOUT VALUE: 10
//
BINDER: Ac-[Lys(N3)][βAla]LTF[R8]EYWAQ[Cba′][S5]SAA-NH2 (staple 6-13; reading uncertain) [MP-081]
UNIT ABBREVIATION: nM
READOUT VALUE: 19
//
BINDER: Ac-[Lys(N3)][βAla]PTF[R8]EYWAQ[Cba′][S5]SAA-NH2 (staple 6-13; reading uncertain) [MP-081 L1P]
UNIT ABBREVIATION: nM
READOUT VALUE: 21.9

The values you see were collected from paper PMC6632053.
